experiment: Pharmacokinetic study in rats; assay type: in vivo, Sprague‐Dawley rats; settings: male, Sprague-Dawley, rat, in vivo, intravenous, 0.2 mg/kg, mean ± SD (n = 3), read-out: Vss

COMPOUND	Vd
N=C(N)Nc1ccc(C(=O)Oc2ccc3c(c2)OC[C@H]3CC(=O)N[C@@H](CC(=O)O)C(=O)O)cc1.O [SCO‐792]	1.29 L/kg

* * *

assay: Pharmacokinetic study in rats; format: in vivo, Sprague‐Dawley rats; conditions: male, Sprague-Dawley, rat, in vivo, intravenous, 0.2 mg/kg, mean ± SD (n = 3), read-out: CLp (converted)

COMPOUND STRUCTURE STRING	clearance / mL/min/kg
N=C(N)Nc1ccc(C(=O)Oc2ccc3c(c2)OC[C@H]3CC(=O)N[C@@H](CC(=O)O)C(=O)O)cc1.O	11.1
